Experiment: yeast display, Sf9 membrane polyspecificity reagent, FACS + sequencing; frameworks hold sequencing errors
Recorded Endpoint: polyreactivity (PSR sort gate)

| Sequence Text | polyreactivity (PSR sort gate) |
| --- | --- |
| QVQLVESGGGLVQAGGSLRLSCAASGRILATYTKGWYRPAPGKERELVATITSGGRTTYADSVKGRFTISRDNAKNTVYLQMNSLKPEDTAVYYCNVAYWYYRKYRPLWGRDYYWGQGTQVTVSS | high polyreactivity |
| QVQLVESGGGLVQAGGSLRLSCAASGFTFLGYDMGWYRQAPGKERELVAAIDYSGGSTYYADSVKGRFTISRDNAKNTVYLQMNSLKPEDTAVYYCAAEYQSGPYTWYEYWGQGTQVTVSS | high polyreactivity |
| QVQLVESVGGLVQAGGSLRLSCAASGRIFRYYAMGWSRQAPGKERELVAGISRGTSTYYADSVKGRFTISRDNAKNTVYLQMNSLKPEDTAVYYCAKGSIQYFRPYTFYTWGQGTQVTVSS | high polyreactivity |
| QVQLVESGGGLVQAGGSLRLSCASSGRIFYSYAMGWYRQAPGKERELVAAITVSGGSTFYADSVKGRFTISRDNAKNTVYLQMNSLKPEDTAVYYCAAQSTTIEDGWYVEYNYWGQGTQVTVSS | high polyreactivity |
| QDQLVESGGGLVQAGGSLRLSCAASGRIFDYNVMGWYRQAPGTEREFVADINGSGGGTNYADSVKGRFTISRDNAKNTVYFLMNSLKPEDTAVSYCNADSYEYHVPYYDYRYDYWGQGTQVTVSS | low polyreactivity |

Recorded result, "QVQLVESGGGLVQAGGSLRLSCAASGSIIAANAMGWYRQAPGKERELVAAITFDSGSTHYADSVKGRFTISRDNAKNTFYLQMNSLKPEDTAVYYCAVRDFNSDYDDWGQGTQVTVSS" , polyreactivity (PSR sort gate): low polyreactivity

Recorded result, "QVQLVESGGGLVQAGGSLRLICAASGNIFTYYAMGWYRQAPWKERELVAAISSGDSTNYADSVKGRFTISRDNAKNTVYLQMNSLKPEDTAVYYCNVDRVPSRRYYAQKGYFRYYYWGQGTQVTVSS" , polyreactivity (PSR sort gate): high polyreactivity

Recorded result, "QVQLVESGGGLDQAGGSLRLSCAASGSIFQDYAMGWYRQAPGKERELVAAITKSGVSTYYADSVKGRFTISRDNAKNTVYLQMNSLKPEDTAVYYCAAPRYVRYHRGYGFDYWGQGTQVTVSS" , polyreactivity (PSR sort gate): low polyreactivity

Recorded result, "QVQLVDSGGGLVQAGGSLRLSCAASGLTITVYVMGWYRQAPGKERELVAAIDWSGGSTYYADSVKGRFTISRDNAKNTVYLQMNSLKPEDTAVYYCASETTDYAYYGFTYDYWGQGTQVTVSS" , polyreactivity (PSR sort gate): low polyreactivity

Recorded result, "QVQLVESGGGLVQAGGSLRLSCAASGRTISWYVMGWYRQAPGKERELVAAISWNGGRTYYADSVKGRFTISRDNAKNTVYLQMNSLKPEDTAVYYCAAKNYHGYPFDYWGQGTQVTVSS" , polyreactivity (PSR sort gate): high polyreactivity

Recorded result, "QVQLVESGGGLVQAGGSLRLSCAASGRTFSFYAMGWYRQAPGNERELVASMSRSGASTYYADSVKGRFTISRDNAKNTVYLQMNSLKPEDTAVYYCAAEWGRRYIYYYWGQGTQVTVSS" , polyreactivity (PSR sort gate): high polyreactivity

###

Test: yeast display, Sf9 membrane polyspecificity reagent, FACS + sequencing; frameworks hold sequencing errors

| Sequence Text | polyreactivity (PSR sort gate) |
| --- | --- |
| QVKLVESGGGLVQAGGSISLTCAASGSIFYKYVMGWYRQAPGKERELVAAISRGGGSTYYADSVKGRFTISRDNAKNTVYLQMNSLKPEDTAVYYCYAVGRPRYGHGFDHWGQGTQVTVSS | high polyreactivity |
| QVQLVESGGGLVQAGGSLRLSCAASGSIFYANTLGWYRQAPGTERELVAAINWSGGRTYYADSVKGRFTISRDNAKNTVYLQMNSLKPEDTAVYYCAASATYLYKYPVWGYDYWGQGTQVTVSS | high polyreactivity |

###

Assay: yeast display, Sf9 membrane polyspecificity reagent, FACS + sequencing; frameworks hold sequencing errors
Recorded Endpoint: polyreactivity (PSR sort gate)

| Sequence Text | Value |
| --- | --- |
| QVQLVESGGGLVQAGGSLRLSCAASGIIFTDNAMGWYRQAPGKARELVATISWSTDNTYYADSVKGRFTISRDNAKNTVYLQMNSLKPEDTAVYYCAAGWQIIQGSQYDYWGQGTQVTVSS | low polyreactivity |
| QVQLVESCLGLVQAGGSLRLSFADSGIIIMFYSMGWYRQATGKERELLAAISASGGRTYYADSVKGRFTISRDNAKNTVYLQMNSLKPEDTAVYYCARLLPTPGKPILDYWGQGTQVTVSS | low polyreactivity |
| QVQLVESGGGLDQAGGSLRLSCAASGFTFVGNAMGWYRQAPGKERELVATITSGGNTKYADSVKGRFTISRDNAKNTVYLQMNSLKPEDTAVYYCAAAKYNYRRFNYWGQGTQVTVSS | low polyreactivity |

###

Assay: yeast display, Sf9 membrane polyspecificity reagent, FACS + sequencing; frameworks hold sequencing errors
Recorded Endpoint: polyreactivity (PSR sort gate)

Example entries begin here.
| Sequence Text | Value |
| --- | --- |
| QVQLVESGGGLVQAGGSLRLSCAASGFTFYLYTMGWYRQAPGKERELVAAINYSGGRTYYADSVKGRFTISRDNAKNTVYLQMNSLKPEDTAVYYCYPRVKNLQAYDYWGQGTQVTVSS | high polyreactivity |
| QVQLVESGGGLVQAGGSLRLSCAASGITFSLYAMGWYRQAPGKERELVAAITRSGGSTYYADSVKGRFTISRDNAKNTVYLQMNSLKPEDTAVYYCAALRPGVRRYYYWGHGTQVTVSS | high polyreactivity |
| QVQLVESGGGLVQAGGSLLLTCAASGIIFVIYAMGWYRQAPGKERELVAAITSDGSTSYADSVKGRFTISRDNAKNTVYLQMNSLKPEDTAVYYCAKDFFEHSPVSHTYSSSKYDYWGQGTQVTVSS | low polyreactivity |
| QVQLVESGGGLVQAGGSLRLSCAASGITFVYYAMGWYRQAPGKERELVAGIDWSGGSTYYADSVKGRFTISRDNAKNTVYLQMNSLKPEDTAVYYCAAEFWLSTDFYYWGQGTQVTVSS | high polyreactivity |

The record that follows has no polyreactivity (PSR sort gate) shown yet.
Recorded result, "QVQLVESGGGLVQAGGSLRISCAASGFTYSSYAMGWYRQATGKERELVAAISTRGGSTYYADSVKGRFTISRDNAKNTVYLQMNSLKPEDTAVYYCSTGGRGGRRYEYWGQGTQVTVSS" , polyreactivity (PSR sort gate): low polyreactivity

###

Assay: yeast display, Sf9 membrane polyspecificity reagent, FACS + sequencing; frameworks hold sequencing errors
Recorded Endpoint: polyreactivity (PSR sort gate)

Example entries begin here.
| Sequence Text | polyreactivity (PSR sort gate) |
| --- | --- |
| QVQLVESGGGLVQAGGSLRLSCAASGSIFGANGMGWYRQAPGKESELVAASTSGGSTTYADYVKGRFTISRDNAKNTVYLQINSLKPEDTAVYYCAADECTPYWPVDNFDYWGQGTQVTVSS | low polyreactivity |
| QVHLVESGGGLVQAGGSLRISCAASGSIFFPYAMGGYRQAPGKERELVAAISYSGTSTYYAASVKGRFTISRDNAKNTVYLQMNSLKPVDTAVYYCAAYSRYYASYDYWGQGTQVTVSS | high polyreactivity |
| QVQLVESGGGLVQAGGSLRLSCAASGSTFPYNAMGWYRPAPGKERELVAAITAGGARTYYADSVKGRFTISRDNAKNTVYLQMNSLKPEDTAVYYCNKVKATSYRYYYWGQGTQVTVSS | high polyreactivity |
| QVQLVESGGGLVQAGGSLRISCAASGGTFTNYAMGWYRQAPGKERELVAAITDSGATTYYADSVKGRFTISRDNAKNTVYLQMNSLKPEDTAVYYCNAELDLYTDFDYWGQGTQVTVSS | low polyreactivity |
| QVQLVESGGGLVQAGGSLRLSCAASGRIFARYAMGWYRQAPGKERELVAAISFRGGSTYYADSVKGRFTISRDNAQNTVYLPMNSLKPEDTAVYYCNARYGRGGYDYWGQGTQVSVSS | high polyreactivity |

Recorded result, "QVQLVESGGGLVQAGGSLRLSCAASGSIFGDNAMGWYRQAPGKERELVARISSGGNTYYADSVKGRFSISRDNAMNTVYLQMNSLKPEDTAVYYCAAAIIVRYKKFPYYYWGQGTQVTVSS" , polyreactivity (PSR sort gate): high polyreactivity

Recorded result, "QVQIVESVGGLVQAGGSLRLSCAASGSTVERYAMGWYRKAPGKERELVARITWSGGSTYYADSVKGRFTISLDNAKNTVYVQMNSLKPEDTAVYYCNRDTRYPGYWRVFAKNNYWGQGTQVTVSS" , polyreactivity (PSR sort gate): high polyreactivity
